Sourced from PubChem BioAssay

- protocol-text: modulators of S6 phosphorylation in cells, primary screen, cell-based, A549, cytoblot, luminescence, serum-stimulated (AID 1158);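 note: serum-stimulated A549 lung adenocarcinoma cells; signal is phosphorylated S6 detected by cytoblot immunostaining with HRP secondary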
- condition-description: A549 phospho-S6 cytoblot, 5 h, higher = more signal
Categorize each record by its z-score using lowest = under 0.01, middle = from 0.01 up to 0.1, highest = 0.1 and over

INSERT INTO assay_data (compound, category) VALUES
  ('CCOC(=O)C[C@H]1[C@H](OC(=O)c2cc3ccccc3oc2=O)[C@@H](NC(=O)Cc2ccc(OC)cc2)c2cc(OCCCO)ccc2N1C(=O)c1ccc2ccccc2n1', 'highest'),
  ('Cc1cc(C)c(C(O)C2C=CC3C(=O)NC(=O)C3N2Nc2ccc(Cl)cc2Cl)c(C)c1 (stereo not given)', 'lowest'),
  ('NCCCCCNC(=O)[C@@H]1C[C@@H]2C(=O)NCC(=O)N2[C@@H]1c1cccc(OCCO)c1', 'highest'),
  ('COC(=O)[C@@]1(Cc2ccccc2)[C@H]2c3cc(C(=O)N(C)C)n(CCc4ccc(O)c(OC)c4)c3C[C@H]2CN1C(=O)c1ccccc1', 'lowest'),
  ('COCCOC(=O)N1C(=O)[C@@]2(c3cc(C#CC4=CCCCC4)ccc31)[C@H](c1ccc(OCCO)cc1)N1[C@H](c3ccccc3)[C@H](c3ccccc3)OC(=O)[C@H]1[C@@H]2C(=O)NC[C@H](O)c1ccccc1', 'highest');

Task: Hi there! Could you help me figure out the category for COc1ccc([Si](C)(C)[C@@H]2[C@@H](CC(=O)N(CCO)Cc3ccccc3)O[C@]3(C(=O)N(Cc4cccc(N5CCOC5=O)c4)c4ccccc43)[C@H]2C)cc1 please?
Result: highest

Task: Hi there! Could you help me figure out the category for COc1ccccc1CN1C(=O)c2ccccc2[C@](Cc2ccccc2I)(C(=O)NCC(F)(F)F)[C@@H]1c1ccc(CO)cc1 please?
Result: lowest

Task: Hi there! Could you help me figure out the category for COc1ccc([Si](C)(C)[C@@H]2[C@@H](CC(=O)N3Cc4ccccc4C[C@H]3CO)O[C@]3(C(=O)N(Cc4cccc(N5C(=O)c6cccc7cccc5c67)c4)c4ccccc43)[C@H]2C)cc1 please?
Result: middle

Task: Hi there! Could you help me figure out the category for COc1ccc(NC(=O)O[C@H]2[C@H](OC(=O)Nc3ccccc3)[C@H](OC(=O)Nc3ccccc3)[C@@H](OC)O[C@@H]2CO)cc1 please?
Result: middle

Task: Hi there! Could you help me figure out the category for O=C(NCc1ccccc1)[C@@H]1c2ccccc2C(=O)N(Cc2ccccc2C(F)(F)F)[C@H]1c1ccc(CO)cc1 please?
Result: middle

====

List of composite z-score values.
- study-target: Fibroblast growth factor 10 (Homo sapiens)
- protocol-text: FGF10 binders on small-molecule microarrays, primary screen, biochemical, small-molecule microarray, 635 nm fluorescence (AID 1102)
- condition-description: FGF10 binding, fluorescence 635 nm, higher = more signal

Use the examples below as a reference point.
INSERT INTO measurements (compound, study_target, parameter_measured, reported_measurement) VALUES
  ('C=CC[C@]1(C(=O)O)COC(c2ccc(OCCCO)cc2)=N1', 'Fibroblast growth factor 10 (Homo sapiens)', 'composite z-score', -0.0346),
  ('COc1ccc(CCN2C(=O)[C@@]3(Cc4ccccc42)c2ccccc2C(=O)N(Cc2ccccc2OC)[C@H]3c2ccc(CO)cc2)cc1', 'Fibroblast growth factor 10 (Homo sapiens)', 'composite z-score', -0.783),
  ('COC(=O)C(CC#Cc1ccc2c(c1)[C@]1(C(=O)N2)[C@H](c2ccccc2OCCO)N2[C@H](c3ccccc3)[C@H](c3ccccc3)OC(=O)[C@H]2[C@@H]1C(=O)NC[C@H](O)c1ccccc1)C(=O)OC', 'Fibroblast growth factor 10 (Homo sapiens)', 'composite z-score', 0.928),
  ('C=CCC(OC(C)=O)[C@@H]1[C@@H](N(Cc2cc3ccccc3o2)C(=O)c2ccc(-c3ccccc3)cc2)c2cc(OCCCO)ccc2N1C(=O)c1ccc2ccccc2c1 (stereo partly specified)', 'Fibroblast growth factor 10 (Homo sapiens)', 'composite z-score', 0.132),
  ('COC(=O)c1ccc([C@H](NC(=O)c2ccco2)[C@]2(C)C[C@H]2C2CCCCC2)cc1', 'Fibroblast growth factor 10 (Homo sapiens)', 'composite z-score', -0.32);

Now let's try a different one.
Task: Give the reported composite z-score for CC(=O)NCCCC[C@@H]1NC(=O)[C@@H]2C[C@H](C(=O)NCCCC[N+](C)(C)C)[C@H](c3ccc(O)cc3)N2C1=O (system: Fibroblast growth factor 10 (Homo sapiens)).
Result: 1.33

====

- study-target: Follistatin-related protein 3 (Homo sapiens)
- protocol-text: FSTL3 binders on small-molecule microarrays, primary screen, biochemical, small-molecule microarray, 635 nm fluorescence (AID 1105);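 note: score merges emission near 667 nm and signal to noise per printed spot across three slides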
- condition-description: FSTL3 binding, higher = more signal
parameter-measured: composite z-score
Just the number.

Use the examples below as a reference point.
INSERT INTO measurements (given_smiles, study_target, parameter_measured, reported_measurement) VALUES
  ('[N-]=[N+]=Nc1ccccc1C[C@]1(C(=O)N2CCOCC2)N=C(c2ccc(OCCCO)cc2)O[C@H]1c1ccccc1', 'Follistatin-related protein 3 (Homo sapiens)', 'composite z-score', 1.01),
  ('COCCOC(=O)N1C(=O)[C@@]2(c3cc(C#CC4=CCCCC4)ccc31)[C@H](c1ccc(OCCO)cc1)N1[C@H](c3ccccc3)[C@H](c3ccccc3)OC(=O)[C@H]1[C@@H]2C(=O)N1CCN(c2ncccn2)CC1', 'Follistatin-related protein 3 (Homo sapiens)', 'composite z-score', 0.866);

Now let's try a different one.
Task: Give the reported composite z-score for NC(=O)NCC#Cc1ccc2c(c1)[C@]1(C(=O)N2)[C@H](C(=O)NC[C@H](O)c2ccccc2)[C@H]2C(=O)O[C@H](c3ccccc3)[C@H](c3ccccc3)N2[C@@H]1c1ccc(OCCO)cc1 (system: Follistatin-related protein 3 (Homo sapiens)).
Result: 0.0489

====

- protocol-text: small-molecule binders of probe aInhba, primary screen, biochemical, small-molecule microarray, 635/667 nm fluorescence (AID 1148);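 note: score merges 667nm spot fluorescence with signal-to-noise for antibody binding to printed compounds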
- condition-description: higher = more signal
Classify by measured composite z-score: 1.0 if it is equal to or exceeds -0.1, 0.0 if it is smaller.

INSERT INTO assay_data (compound, category) VALUES
  ('NCCCCCCNC(=O)[C@@H]1C[C@@H]2C(=O)N[C@@H](CCCCN)C(=O)N2[C@@H]1c1cccc(OCCO)c1', 1.0),
  ('O=C1O[C@@H](c2ccccc2)[C@@H](c2ccccc2)N2[C@@H](c3ccccc3OCCO)[C@]3(C(=O)Nc4ccc(C#CCCO)cc43)[C@@H](C(=O)N3CCCCCCC3)[C@H]12', 1.0);

Task: Confirm if composite z-score reported for the compound O=C1NC(=O)C2C1C=CC(C(O)c1ccco1)N2Nc1ccccn1 (centres undefined) is -0.1 or above.
Result: 0.0

Task: Confirm if composite z-score reported for the compound CCCC[C@@H]1C[C@H]1[C@@H](NC(=O)c1ccccc1)c1ccc(C(F)(F)F)cc1 is -0.1 or above.
Result: 0.0

====

- Test system: Fibrinogen (Alexa647-labelled)
- protocol-text: fibrinogen binders on compound microarrays, profiling panel, artefact control for SMM control-protein annotation, biochemical, small-molecule microarray, 635/667 nm fluorescence (AID 1131);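 note: z-score merges 667 nm fluorescence with per-spot signal-to-noise over triplicate slides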
- condition-description: fibrinogen-A647 binding fluorescence, higher = more signal
parameter-measured: composite z-score
Just the number.

Use the examples below as a reference point.
INSERT INTO results (compound, study_target, reported_measurement) VALUES
  ('NC(=O)NCC#Cc1ccc2c(c1)[C@]1(C(=O)N2)[C@H](C(=O)O)[C@H]2C(=O)O[C@H](c3ccccc3)[C@H](c3ccccc3)N2[C@@H]1c1ccc(OCCO)cc1', 'Fibrinogen (Alexa647-labelled)', 0.57),
  ('CN1C(=O)C2C=CC(C(O)c3ccc(F)cc3)N(Nc3ccccc3)C2C1=O (stereo not given)', 'Fibrinogen (Alexa647-labelled)', 0.802),
  ('O=C1OCCC=C[C@H]2OC34C=CCN(Cn5nnc6ccccc65)C(=O)[C@H]3N(CCCCCCO)C(=O)[C@@H]4C12 (stereo not given in full)', 'Fibrinogen (Alexa647-labelled)', -0.907),
  ('CCCCN1CC=CC23O[C@@H]4/C=C\CCC(C)OC(=O)C4[C@H]2C(=O)N(C(CO)C(C)C)[C@@H]3C1=O (stereo not given in full)', 'Fibrinogen (Alexa647-labelled)', -0.188),
  ('COCCCNC(=O)[C@@]1(Cc2ccccc2CN=[N+]=[N-])N=C(c2ccc(OCCCO)cc2)O[C@H]1c1ccccc1', 'Fibrinogen (Alexa647-labelled)', 0.991),
  ('COCCOC(=O)N1C(=O)[C@@]2(c3cc(C#CCNC(N)=O)ccc31)[C@H](C(=O)N1CCc3cc(OC)c(OC)cc3C1)[C@H]1C(=O)O[C@H](c3ccccc3)[C@H](c3ccccc3)N1[C@@H]2c1ccccc1OCCO', 'Fibrinogen (Alexa647-labelled)', 0.757),
  ('C=CCC(OC(C)=O)[C@@H]1[C@@H](N(Cc2ccc(-c3ccccc3)cc2)C(=O)Cc2ccc(F)cc2)c2cc(OCCCO)ccc2N1C(=O)Cc1ccc(OC)cc1 (stereo not given in full)', 'Fibrinogen (Alexa647-labelled)', 0.397),
  ('CCC[C@@H]1C[C@@]1(CCC)[C@@H](NC(=O)OCc1ccccc1)c1ccc(-c2ccccc2)cc1', 'Fibrinogen (Alexa647-labelled)', -1.37),
  ('Cc1ccc(S[C@]2(C(=O)NCC(F)(F)F)CC(=O)N(Cc3ccccc3)[C@@H]2c2ccc(CO)cc2I)cc1', 'Fibrinogen (Alexa647-labelled)', 0.0957),
  ('CCOC(=O)C1=CC[C@@H](c2ccc(OCc3ccccc3)c(OC)c2)N(S(=O)(=O)c2ccc(C)cc2)[C@H]1c1ccc(SC)cc1', 'Fibrinogen (Alexa647-labelled)', 0.715);

Task: Give the reported composite z-score for CC(C)N1C(=O)C[C@@](C(=O)NCCCN(C)C)(c2ccc([N+](=O)[O-])cc2)[C@H]1c1ccc(CO)cc1 (system: Fibrinogen (Alexa647-labelled)).
Result: 0.47

Task: Give the reported composite z-score for COCCCNC(=O)[C@]1(CCS(=O)(=O)c2ccccc2)N=C(c2ccc(OCCCO)cc2)O[C@@H]1c1ccccc1N=[N+]=[N-] (system: Fibrinogen (Alexa647-labelled)).
Result: 0.996

Task: Give the reported composite z-score for C=CCC(OC(C)=O)[C@@H]1[C@@H](N(Cc2cc3ccccc3o2)C(=O)c2ccc(-c3ccccc3)cc2)c2cc(OCCCO)ccc2N1C(=O)c1ccc2ccccc2c1 (stereo not given in full) (system: Fibrinogen (Alexa647-labelled)).
Result: 0.394
